METHOD: Fraction unbound in C57BL/6 mouse plasma at 100 mg/kg, sc
Type: ADME, organism-based
RECORDED ENDPOINT: fraction unbound
Respond using a number only.

INSERT INTO results (smiles_repr, endpoint_value) VALUES
  ('C[C@H](c1cccc2c1CNCC2)n1c(=O)oc2cc(S(=O)(=O)Nc3ncns3)ccc21', 0.065);

Exam item: # get_value(readout='fraction unbound', item= C[C@H](c1ccccc1CN)n1c(=O)oc2cc(S(=O)(=O)Nc3cccc(F)n3)c(F)cc21 )
Marked response: 0.145

====

METHOD: Half life in Wistar Hannover rat at 2 mg/kg, iv
Type: ADME, organism-based
MEASUREMENT CONDITIONS: in vivo
The reader will find reported half-life values listed item by item below.
Write down the numeric answer in h and omit the unit.

Example results:
INSERT INTO measurements (smiles_repr, endpoint_value) VALUES
  ('C[C@H](c1ccccc1CN)n1c(=O)oc2cc(S(=O)(=O)Nc3cccc(F)n3)c(F)cc21', 3),
  ('C[C@H](c1cccc2c1CNCC2)n1c(=O)oc2cc(S(=O)(=O)Nc3ncns3)ccc21', 0.8);

// moving on: another record for half-life
Exam item: # get_value(readout='half-life', item= C[C@H](c1cccc2c1CNCC2)n1c(=O)oc2cc(S(=O)(=O)Nc3cccc(F)n3)c(F)cc21 )
Marked response: 1.9

====

SYSTEM: Sodium channel protein type 9 subunit alpha (Homo sapiens)
Sequence (Q15858 whole entry): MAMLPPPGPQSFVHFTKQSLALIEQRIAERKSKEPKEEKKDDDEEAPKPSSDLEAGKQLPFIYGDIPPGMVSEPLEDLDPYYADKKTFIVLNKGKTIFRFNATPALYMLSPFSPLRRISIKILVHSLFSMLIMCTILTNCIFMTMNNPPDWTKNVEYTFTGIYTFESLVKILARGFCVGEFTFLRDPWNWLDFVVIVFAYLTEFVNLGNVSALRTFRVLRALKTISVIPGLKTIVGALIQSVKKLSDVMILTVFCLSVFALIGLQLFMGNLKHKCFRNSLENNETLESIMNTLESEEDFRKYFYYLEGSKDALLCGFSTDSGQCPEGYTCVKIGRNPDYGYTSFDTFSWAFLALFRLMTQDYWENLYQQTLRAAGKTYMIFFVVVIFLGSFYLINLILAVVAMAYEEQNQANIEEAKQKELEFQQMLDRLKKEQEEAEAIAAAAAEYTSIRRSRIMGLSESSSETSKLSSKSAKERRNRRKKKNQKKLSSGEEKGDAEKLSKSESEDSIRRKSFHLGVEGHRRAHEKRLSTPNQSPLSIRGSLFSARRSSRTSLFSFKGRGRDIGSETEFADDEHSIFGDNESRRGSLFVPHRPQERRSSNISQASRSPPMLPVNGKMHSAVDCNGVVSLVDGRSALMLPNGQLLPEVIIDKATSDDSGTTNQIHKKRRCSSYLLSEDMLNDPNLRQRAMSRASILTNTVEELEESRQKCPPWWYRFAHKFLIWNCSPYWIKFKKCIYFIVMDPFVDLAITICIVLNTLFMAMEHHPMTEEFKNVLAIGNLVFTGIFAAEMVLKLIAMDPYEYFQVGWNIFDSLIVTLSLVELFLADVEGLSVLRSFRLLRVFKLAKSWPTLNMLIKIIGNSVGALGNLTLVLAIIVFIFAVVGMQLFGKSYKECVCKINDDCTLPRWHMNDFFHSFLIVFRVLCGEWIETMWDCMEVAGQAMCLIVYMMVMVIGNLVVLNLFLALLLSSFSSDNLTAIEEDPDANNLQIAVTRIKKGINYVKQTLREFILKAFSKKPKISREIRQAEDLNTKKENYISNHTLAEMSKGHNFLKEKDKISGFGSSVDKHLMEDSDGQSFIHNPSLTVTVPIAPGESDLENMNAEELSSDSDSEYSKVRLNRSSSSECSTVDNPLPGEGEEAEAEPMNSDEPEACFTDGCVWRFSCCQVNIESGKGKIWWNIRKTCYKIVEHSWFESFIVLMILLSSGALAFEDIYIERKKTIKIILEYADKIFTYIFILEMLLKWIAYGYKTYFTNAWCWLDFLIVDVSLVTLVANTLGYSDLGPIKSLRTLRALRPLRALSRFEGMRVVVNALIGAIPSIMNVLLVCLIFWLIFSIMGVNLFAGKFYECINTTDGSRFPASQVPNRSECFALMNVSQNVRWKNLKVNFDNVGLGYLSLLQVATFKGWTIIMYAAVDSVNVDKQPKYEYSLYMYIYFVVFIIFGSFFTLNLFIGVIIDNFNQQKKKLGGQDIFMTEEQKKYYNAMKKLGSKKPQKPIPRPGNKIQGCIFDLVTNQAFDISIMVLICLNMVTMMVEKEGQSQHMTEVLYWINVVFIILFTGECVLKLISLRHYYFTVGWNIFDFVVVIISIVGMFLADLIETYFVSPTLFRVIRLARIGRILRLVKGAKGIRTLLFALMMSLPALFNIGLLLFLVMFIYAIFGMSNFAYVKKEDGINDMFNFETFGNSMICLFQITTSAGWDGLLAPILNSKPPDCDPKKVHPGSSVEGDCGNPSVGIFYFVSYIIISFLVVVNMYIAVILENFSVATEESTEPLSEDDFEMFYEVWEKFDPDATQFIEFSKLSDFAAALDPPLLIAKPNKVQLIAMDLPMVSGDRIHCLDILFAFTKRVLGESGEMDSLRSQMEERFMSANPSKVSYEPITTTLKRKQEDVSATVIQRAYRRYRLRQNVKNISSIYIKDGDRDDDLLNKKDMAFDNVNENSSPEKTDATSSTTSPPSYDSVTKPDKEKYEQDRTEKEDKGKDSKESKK
METHOD: Inhibition of 50% inactivated human Nav1.7alpha expressed in HEK293 cells incubated for 5 mins measured at 10 secs interval by PatchXpress automated electrophysiology method
Type: cell-based
The reader will find reported pIC50 values listed item by item below.
pIC50 here: minus log base 10 of the concentration, concentration in moles per litre.

Example results:
INSERT INTO results (smiles_repr, recorded_endpoint, endpoint_value) VALUES
  ('C[C@H](c1ccccc1CN)n1c(=O)oc2cc(S(=O)(=O)Nc3cccc(F)n3)c(F)cc21', 'pIC50', 7.41),
  ('O=c1oc2cc(S(=O)(=O)Nc3ncns3)ccc2n1Cc1cccc2c1CNCC2', 'pIC50', 6.72);

Exam item: # get_value(readout='pIC50', item= C[C@H](c1cccc2c1CNCC2)n1c(=O)oc2cc(S(=O)(=O)Nc3cccc(F)n3)c(F)cc21 )
Marked response: 6.82

Exam item: # get_value(readout='pIC50', item= O=C1COc2cc(S(=O)(=O)Nc3ncns3)ccc2N1Cc1ccccc1 )
Marked response: 6.09

Exam item: # get_value(readout='pIC50', item= O=c1sc2cc(S(=O)(=O)Nc3ncns3)ccc2n1Cc1ccccc1 )
Marked response: 6.01

Exam item: # get_value(readout='pIC50', item= C[C@H](c1cccc2c1CNCC2)n1c(=O)oc2cc(S(=O)(=O)Nc3ncns3)ccc21 )
Marked response: 7.68

====

SYSTEM: Sodium channel protein type 9 subunit alpha (Homo sapiens)
METHOD: Inhibition of NaV1.7 channel in human DRG neurons assessed as reduction of TTX-sensitive current by whole cell patch clamp assay
RECORDED ENDPOINT: IC50 (nM)
Write down the numeric answer in nM and omit the unit.

Exam item: Param readout = IC50; param system = Sodium channel protein type 9 subunit alpha (Homo sapiens); param query = C[C@H](c1cccc2c1CNCC2)n1c(=O)oc2cc(S(=O)(=O)Nc3ncns3)ccc21 ; response: value
Marked response: 31

====

METHOD: Selectivity ratio of IC50 for human Nav1.5alpha expressed in HEK293 cells to human Nav1.7alpha expressed in HEK293 cells
RECORDED ENDPOINT: Ratio IC50
Respond using a number only.

Example results:
INSERT INTO measurements (smiles_repr, recorded_endpoint, endpoint_value) VALUES
  ('C[C@H](c1cccc2c1CNCC2)n1c(=O)oc2cc(S(=O)(=O)Nc3ccc(F)cn3)c(F)cc21', 'Ratio IC50', 108),
  ('C[C@H](c1cccc2c1CNCC2)n1c(=O)oc2cc(S(=O)(=O)Nc3cc(Cl)ccn3)c(F)cc21', 'Ratio IC50', 88),
  ('C[C@H](c1cccc2c1CNCC2)n1c(=O)oc2cc(S(=O)(=O)Nc3cccc(F)n3)c(F)cc21', 'Ratio IC50', 210),
  ('C[C@H](c1ccccc1)n1c(=O)oc2cc(S(=O)(=O)Nc3ncns3)ccc21', 'Ratio IC50', 287),
  ('C[C@H](c1ccccc1CN)n1c(=O)oc2cc(S(=O)(=O)Nc3cccc(F)n3)c(F)cc21', 'Ratio IC50', 850);

Exam item: # get_value(readout='Ratio IC50', item= O=S(=O)(Nc1ncns1)c1ccc2c(cnn2Cc2ccccc2)c1 )
Marked response: 6

Exam item: # get_value(readout='Ratio IC50', item= C[C@H](c1cccc2c1CNCC2)n1c(=O)oc2cc(S(=O)(=O)Nc3ncns3)ccc21 )
Marked response: 1381

====

SYSTEM: Sodium channel protein type 9 subunit alpha (Mus musculus)
METHOD: Inhibition of 50% inactivated mouse Nav1.7alpha incubated for 5 mins measured at 10 secs interval by PatchXpress automated electrophysiology method
RECORDED ENDPOINT: IC50

INSERT INTO measurements (smiles_repr, system, recorded_endpoint, endpoint_value) VALUES
  ('C[C@H](c1ccccc1CN)n1c(=O)oc2cc(S(=O)(=O)Nc3cccc(F)n3)c(F)cc21', 'Sodium channel protein type 9 subunit alpha (Mus musculus)', 'IC50', '11 nM');

// moving on: another record for IC50
Exam item: # get_value(readout='IC50', item= C[C@H](c1cccc2c1CNCC2)n1c(=O)oc2cc(S(=O)(=O)Nc3ncns3)ccc21 )
Marked response: 30 nM

====

SYSTEM: Sodium channel protein type 5 subunit alpha (Homo sapiens, UniProt Q14524)
Sequence (Q14524 whole entry): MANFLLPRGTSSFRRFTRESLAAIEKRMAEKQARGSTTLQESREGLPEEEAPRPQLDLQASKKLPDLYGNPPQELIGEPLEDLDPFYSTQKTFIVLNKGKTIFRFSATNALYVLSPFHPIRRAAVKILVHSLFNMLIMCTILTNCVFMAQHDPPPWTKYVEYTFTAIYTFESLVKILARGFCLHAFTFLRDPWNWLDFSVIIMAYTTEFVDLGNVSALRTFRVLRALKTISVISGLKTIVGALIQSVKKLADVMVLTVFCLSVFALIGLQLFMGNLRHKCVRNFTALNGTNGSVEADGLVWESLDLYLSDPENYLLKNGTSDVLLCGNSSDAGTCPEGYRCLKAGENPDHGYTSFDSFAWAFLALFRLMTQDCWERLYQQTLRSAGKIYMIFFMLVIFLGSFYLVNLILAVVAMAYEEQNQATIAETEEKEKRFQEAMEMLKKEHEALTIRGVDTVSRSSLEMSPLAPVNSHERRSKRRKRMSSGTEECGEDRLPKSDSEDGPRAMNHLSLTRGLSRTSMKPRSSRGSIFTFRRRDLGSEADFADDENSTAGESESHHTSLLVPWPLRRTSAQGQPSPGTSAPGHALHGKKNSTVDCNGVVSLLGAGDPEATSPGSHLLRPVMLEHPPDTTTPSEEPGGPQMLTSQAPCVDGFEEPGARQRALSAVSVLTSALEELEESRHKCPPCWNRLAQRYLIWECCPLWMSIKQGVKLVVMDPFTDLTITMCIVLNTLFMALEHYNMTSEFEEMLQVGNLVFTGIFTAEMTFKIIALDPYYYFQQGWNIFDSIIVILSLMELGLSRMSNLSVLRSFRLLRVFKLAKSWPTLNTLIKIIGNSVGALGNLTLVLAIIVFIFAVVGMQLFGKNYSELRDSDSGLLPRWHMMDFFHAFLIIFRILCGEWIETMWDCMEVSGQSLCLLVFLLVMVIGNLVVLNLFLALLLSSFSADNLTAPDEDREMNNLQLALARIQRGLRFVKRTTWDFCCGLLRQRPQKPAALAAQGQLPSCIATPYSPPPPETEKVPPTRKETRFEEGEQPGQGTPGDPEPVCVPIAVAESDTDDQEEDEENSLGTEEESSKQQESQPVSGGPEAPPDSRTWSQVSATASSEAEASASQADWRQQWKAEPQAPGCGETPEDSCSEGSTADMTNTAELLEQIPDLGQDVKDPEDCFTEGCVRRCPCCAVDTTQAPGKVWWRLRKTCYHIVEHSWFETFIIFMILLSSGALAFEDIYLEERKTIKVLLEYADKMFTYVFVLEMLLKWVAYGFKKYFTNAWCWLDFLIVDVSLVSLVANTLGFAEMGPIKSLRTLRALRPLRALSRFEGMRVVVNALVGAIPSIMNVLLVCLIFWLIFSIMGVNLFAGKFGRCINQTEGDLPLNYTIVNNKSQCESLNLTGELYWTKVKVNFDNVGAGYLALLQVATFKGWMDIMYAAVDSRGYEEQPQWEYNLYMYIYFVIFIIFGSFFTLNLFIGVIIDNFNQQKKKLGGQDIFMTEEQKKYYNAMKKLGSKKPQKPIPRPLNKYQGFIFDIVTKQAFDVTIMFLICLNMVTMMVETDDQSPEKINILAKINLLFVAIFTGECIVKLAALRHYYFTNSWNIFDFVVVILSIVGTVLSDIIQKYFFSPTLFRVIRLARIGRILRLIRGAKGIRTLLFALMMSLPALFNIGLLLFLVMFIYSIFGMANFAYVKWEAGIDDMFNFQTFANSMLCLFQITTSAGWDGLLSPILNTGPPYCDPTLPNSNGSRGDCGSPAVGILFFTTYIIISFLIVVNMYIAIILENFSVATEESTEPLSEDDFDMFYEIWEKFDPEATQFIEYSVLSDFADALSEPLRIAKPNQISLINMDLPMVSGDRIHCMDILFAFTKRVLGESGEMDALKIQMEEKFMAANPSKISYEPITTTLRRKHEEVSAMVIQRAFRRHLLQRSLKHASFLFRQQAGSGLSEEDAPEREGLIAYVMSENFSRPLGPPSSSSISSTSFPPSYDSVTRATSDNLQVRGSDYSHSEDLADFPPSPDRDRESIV
METHOD: Inhibition of 50% inactivated human Nav1.5alpha expressed in HEK293 cells incubated for 5 mins measured at 10 secs interval by PatchXpress automated electrophysiology method
RECORDED ENDPOINT: IC50

INSERT INTO measurements (smiles_repr, system, endpoint_value) VALUES
  ('O=c1sc2cc(S(=O)(=O)Nc3ncns3)ccc2n1Cc1ccccc1', 'Sodium channel protein type 5 subunit alpha (Homo sapiens, UniProt Q14524)', '> 30 µM');

Exam item: Param readout = IC50; param system = Sodium channel protein type 5 subunit alpha (Homo sapiens, UniProt Q14524); param query = O=C1COc2cc(S(=O)(=O)Nc3ncns3)ccc2N1Cc1ccccc1 ; response: value
Marked response: > 30 µM

Exam item: Param readout = IC50; param system = Sodium channel protein type 5 subunit alpha (Homo sapiens, UniProt Q14524); param query = O=c1oc2cc(S(=O)(=O)Nc3ncns3)ccc2n1Cc1ccccc1 ; response: value
Marked response: > 30 µM

====

METHOD: Apparent permeability of the compound
Assay type: physicochemical
MEASUREMENT CONDITIONS: not told
The reader will find reported Papp values listed item by item below.
Write down the numeric answer in ×10⁻⁶ cm/s and omit the unit.

INSERT INTO results (smiles_repr, unit_abbrev, endpoint_value) VALUES
  ('C[C@H](c1ccccc1CN)n1c(=O)oc2cc(S(=O)(=O)Nc3cccc(F)n3)c(F)cc21', '×10⁻⁶ cm/s', 4);

Exam item: # get_value(readout='Papp', item= C[C@H](c1cccc2c1CNCC2)n1c(=O)oc2cc(S(=O)(=O)Nc3cccc(F)n3)c(F)cc21 )
Marked response: 2.5

====

METHOD: Selectivity ratio of IC50 for human Nav1.5alpha expressed in HEK293 cells to human Nav1.7alpha expressed in HEK293 cells
RECORDED ENDPOINT: Ratio IC50

Example results:
INSERT INTO measurements (smiles_repr, endpoint_value) VALUES
  ('O=c1oc2cc(S(=O)(=O)Nc3ncns3)ccc2n1Cc1cccc2c1CNCC2', '>158'),
  ('O=c1sc2cc(S(=O)(=O)Nc3ncns3)ccc2n1Cc1ccccc1', '>31'),
  ('O=C1COc2cc(S(=O)(=O)Nc3ncns3)ccc2N1Cc1ccccc1', '>37');

Exam item: # get_value(readout='Ratio IC50', item= O=c1oc2cc(S(=O)(=O)Nc3ncns3)ccc2n1Cc1ccccc1 )
Marked response: >62
